Biological target: Chromobox protein homolog 7 (Homo sapiens) (UniProt O95931)
Sequence (O95931 whole entry, looked up): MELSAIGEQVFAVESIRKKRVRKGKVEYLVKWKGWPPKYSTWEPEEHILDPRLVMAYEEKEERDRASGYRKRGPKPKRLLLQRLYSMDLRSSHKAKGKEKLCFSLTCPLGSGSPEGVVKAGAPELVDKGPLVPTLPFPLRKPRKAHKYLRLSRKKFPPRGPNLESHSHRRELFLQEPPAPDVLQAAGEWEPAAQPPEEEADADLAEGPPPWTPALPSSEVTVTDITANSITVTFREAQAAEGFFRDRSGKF
Experiment: blockers of CBX7 binding to H3K27me3 peptide – biochemical, AlphaScreen, primary screen (AID 1224903)
Settings: AlphaScreen His6-CBX7 / biotin-H3K27me3 peptide binding, stronger effect = lower value
About 720 (1.1%) of roughly 66,000 compounds were called active. For the sample, actives were picked, then their nearest neighbours and some compounds at random.
normalised signal (fraction of DMSO) values, listed per item

- molecule: "CCCCN(CC)CCCNC(=O)C1CCN(C(=O)c2cc3sccc3n2C)CC1"
  normalised signal (fraction of DMSO): 0.959
- molecule: "O=C(c1ccc(NC2=NC3CS(=O)(=O)CC3S2)cc1)N1CCN(C2CCCCC2)CC1 (stereo not drawn)"
  normalised signal (fraction of DMSO): 1.05
- molecule: "CC(=O)Nc1ccccc1-c1nc2ccccc2n(C)c1=O"
  normalised signal (fraction of DMSO): 1.23

====

Biological target: Chromobox protein homolog 7 (Homo sapiens) (UniProt O95931)
Assay: blockers of CBX7 binding to H3K27me3 peptide – biochemical, AlphaScreen, primary screen (AID 1224903)
Conditions: AlphaScreen His6-CBX7 / biotin-H3K27me3 peptide binding, stronger effect = lower value; measured here: z-score of CBX7 signal
Among all 66,000 compounds or so, about 720 (1.1%) were called active. The sample holds actives, similar compounds and a random draw of the others, so the mix is not that of the screen.
Lab note: anything with z-score below 2 is marked y; values at 2 or higher are marked n.

- compound: "O=C(Nc1ccccc1Cl)C1CCN(C(=O)c2cnn(-c3ccccc3)c2-n2cccc2)CC1"
  class-assignment: "y"
- compound: "COc1ccc2c(c1OC)C(=O)N(c1ccc(O)cc1)C2"
  class-assignment: "y"
- compound: "CCC(C)NC(=O)c1ccc2nc(N3CCOCC3)sc2c1 (stereo not given)"
  class-assignment: "n"
- compound: "CN(CC(=O)NCCc1ccccc1)S(=O)(=O)c1cnc[nH]1"
  class-assignment: "n"
- compound: "Cc1cc(Nc2ccc(C)c(C)c2)n2ncnc2n1"
  class-assignment: "y"

====

Biological target: Chromobox protein homolog 7 (Homo sapiens) (UniProt O95931)
Assay: blockers of CBX7 binding to H3K27me3 peptide – biochemical, AlphaScreen, primary screen (AID 1224903)
Details: AlphaScreen His6-CBX7 / biotin-H3K27me3 peptide binding
Out of some 66,000 compounds screened, about 720 (1.1%) were called active. Cut-off read from the data, not from the text of the source: active = normalised signal below about 0.5; inactive = the rest, inconclusive results apart. The entries come from a sample that favours actives as a whole.
Outcomes: active, inactive

- smiles-code: "COc1ccc(-c2noc(CCC(=O)NCc3cccc(OC)c3)n2)cc1"
  target-or-test-system: "Chromobox protein homolog 7 (Homo sapiens) (UniProt O95931)"
  class-assignment: "inactive"
- smiles-code: "Nc1nonc1-c1noc(-c2c(F)cccc2F)n1"
  target-or-test-system: "Chromobox protein homolog 7 (Homo sapiens) (UniProt O95931)"
  class-assignment: "inactive"
- smiles-code: "CCN1CCN(c2ccc(Nc3nc(-c4ccccc4)c4cc(Cl)ccc4n3)cc2)CC1"
  target-or-test-system: "Chromobox protein homolog 7 (Homo sapiens) (UniProt O95931)"
  class-assignment: "active"
- smiles-code: "O=C(Nc1ccc2c(c1)OCO2)c1cnc2ccccn2c1=O"
  target-or-test-system: "Chromobox protein homolog 7 (Homo sapiens) (UniProt O95931)"
  class-assignment: "inactive"

====

Biological target: Chromobox protein homolog 7 (Homo sapiens) (UniProt O95931)
Experiment: blockers of CBX7 binding to H3K27me3 peptide – biochemical, AlphaScreen, primary screen (AID 1224903)
Settings: AlphaScreen His6-CBX7 / biotin-H3K27me3 peptide binding, stronger effect = lower value; measured here: z-score of CBX7 signal
About 720 (1.1%) of roughly 66,000 compounds were called active. The entries come from a sample that favours actives as a whole.
z-score overview

- compound: "CCCCN(CC)CCCNC(=O)C1CCN(C(=O)c2cc3sccc3n2C)CC1"
  target-or-test-system: "Chromobox protein homolog 7 (Homo sapiens) (UniProt O95931)"
  z-score: -0.744
- compound: "Cc1ccc(CNC(=O)c2c(-c3ccccc3)noc2C)cc1"
  target-or-test-system: "Chromobox protein homolog 7 (Homo sapiens) (UniProt O95931)"
  z-score: 0.952
- compound: "CC(=O)N1CCc2cc(S(=O)(=O)N(CCO)Cc3ccccc3)ccc21"
  target-or-test-system: "Chromobox protein homolog 7 (Homo sapiens) (UniProt O95931)"
  z-score: 1.75
- compound: "CC(C)c1ccc(OCC(O)Cn2cnc3ccccc32)cc1 (stereo not drawn)"
  target-or-test-system: "Chromobox protein homolog 7 (Homo sapiens) (UniProt O95931)"
  z-score: -13.5
- compound: "COc1ccc(-c2noc(N(C)CC(=O)N3CCN(C)CC3)n2)cc1"
  target-or-test-system: "Chromobox protein homolog 7 (Homo sapiens) (UniProt O95931)"
  z-score: 0.593
- compound: "CC(=O)Nc1ncc2c(n1)CC(c1cccs1)CC2=O (stereo not drawn)"
  target-or-test-system: "Chromobox protein homolog 7 (Homo sapiens) (UniProt O95931)"
  z-score: -0.0863
- compound: "CCOC(=O)C1CCCN(c2c(N3CC(C)CC(C)C3)c(=O)c2=O)C1 (stereo not drawn)"
  target-or-test-system: "Chromobox protein homolog 7 (Homo sapiens) (UniProt O95931)"
  z-score: -2.3
- compound: "O=C(Nc1ccc(-c2nc3ccccc3o2)c(O)c1)c1cccc(F)c1"
  target-or-test-system: "Chromobox protein homolog 7 (Homo sapiens) (UniProt O95931)"
  z-score: 2.16
- compound: "O=C(Nc1ccc(-c2nc3ccccc3o2)c(O)c1)c1ncn[nH]1"
  target-or-test-system: "Chromobox protein homolog 7 (Homo sapiens) (UniProt O95931)"
  z-score: -19.7
- compound: "COc1cc(-c2nc(-c3ccccc3)c(-c3ccccc3)[nH]2)ccc1OCC(=O)O"
  target-or-test-system: "Chromobox protein homolog 7 (Homo sapiens) (UniProt O95931)"
  z-score: -0.891
- compound: "COc1cc(OC)cc(C(=O)Nc2ccc(-c3nc4ccccc4o3)c(O)c2)c1"
  target-or-test-system: "Chromobox protein homolog 7 (Homo sapiens) (UniProt O95931)"
  z-score: -0.356
- compound: "CCc1cc(C)cc(OCC(O)Cn2cnc3ccccc32)c1 (stereo not drawn)"
  target-or-test-system: "Chromobox protein homolog 7 (Homo sapiens) (UniProt O95931)"
  z-score: -3.02
- compound: "COc1ccc(CCNC(=O)CCc2c(C)nc3c(c(C)nn3-c3ccc(C)cc3)c2C)cc1OC"
  target-or-test-system: "Chromobox protein homolog 7 (Homo sapiens) (UniProt O95931)"
  z-score: 1.56
- compound: "Cc1cccc(N(C)C(=O)C(NS(=O)(=O)c2ccc3c(c2)CCC(=O)N3)c2ccccc2)c1 (stereo not drawn)"
  target-or-test-system: "Chromobox protein homolog 7 (Homo sapiens) (UniProt O95931)"
  z-score: 0.379
- compound: "CCN(CCNC(=O)Cn1nc(-c2ccc(Cl)cc2)ccc1=O)c1ccccc1"
  target-or-test-system: "Chromobox protein homolog 7 (Homo sapiens) (UniProt O95931)"
  z-score: -7.3
- compound: "CCN1CCN(CCCNC(=O)c2ccc3c(c2)N(Cc2ccc(F)cc2)CCS3)CC1"
  target-or-test-system: "Chromobox protein homolog 7 (Homo sapiens) (UniProt O95931)"
  z-score: -4.6
- compound: "Cc1cc(NC(=O)CSc2nnc(-c3ccc(Cl)s3)o2)no1"
  target-or-test-system: "Chromobox protein homolog 7 (Homo sapiens) (UniProt O95931)"
  z-score: 1.02
- compound: "Cc1sc2ncn(CC(=O)NCC(=O)NCCCN3CCOCC3)c(=O)c2c1C"
  target-or-test-system: "Chromobox protein homolog 7 (Homo sapiens) (UniProt O95931)"
  z-score: 0.741

====

Target: Chromobox protein homolog 7 (Homo sapiens)
Assay: blockers of CBX7 binding to H3K27me3 peptide – biochemical, AlphaScreen, primary screen (AID 1224903)
Conditions: AlphaScreen His6-CBX7 / biotin-H3K27me3 peptide binding, stronger effect = lower value; measured here: z-score of CBX7 signal
In all, about 66,000 compounds went through this assay and about 720 (1.1%) were called active. Shown is part of a subset that was picked to be rich in actives.

- smiles-code: "Cc1ccc(Cl)cc1N1CCN(C(=O)Cn2ncc3c2-c2ccccc2OC3)CC1"
  z-score: -7.81
- smiles-code: "COc1ccc(OCc2nc(C#N)c(N(C)Cc3ccccc3)o2)cc1"
  z-score: -2.65
- smiles-code: "CCOC(=O)c1cnc2cc(Cl)c(OC)cc2c1Nc1ccc(C(F)(F)F)cc1"
  z-score: -0.244
- smiles-code: "CCOc1ccc(C(=O)Nc2c3c(nn2-c2cccc(C)c2C)CSC3)cc1"
  z-score: 0.119

====

Target: Chromobox protein homolog 7 (Homo sapiens)
Test: blockers of CBX7 binding to H3K27me3 peptide – biochemical, AlphaScreen, primary screen (AID 1224903)
Conditions: AlphaScreen His6-CBX7 / biotin-H3K27me3 peptide binding, stronger effect = lower value; measured here: z-score of CBX7 signal
The whole screen tested about 66,000 compounds, of which about 720 (1.1%) were called active. The sample as a whole holds a higher share of actives than the screen did.
Mark each entry rule met if its z-score sits below -0.5, and rule not met for all others.

- compound: "CCOc1ccc(-n2ccnc2SCC(=O)Nc2ccc(C)cc2C)cc1"
  class-assignment: "rule not met"
- compound: "Cc1ccc2[nH]c(C)c(CCNS(=O)(=O)c3ccc(C)c(C)c3C)c2c1"
  class-assignment: "rule not met"
- compound: "CC1CCN(c2nc3ccc(C(=O)NCCCN4C(C)CCCC4C)cc3s2)CC1 (configuration not stated)"
  class-assignment: "rule not met"
- compound: "O=C(NC1CC1)c1ccc2c(c1)NC(=O)c1ccccc1N2"
  class-assignment: "rule met"
- compound: "CCN(C(=O)Cc1nc(N)n[nH]1)C1(C(=O)Nc2ccccc2)CCCCC1"
  class-assignment: "rule met"
- compound: "CCN(C(=O)Cc1nc(N)n[nH]1)C1(C(=O)Nc2ccc(C)cc2)CCCCC1"
  class-assignment: "rule met"
- compound: "COc1ccccc1NC(=O)Cn1ccc2ccccc2c1=O"
  class-assignment: "rule not met"
- compound: "COc1ccc(OC)c(S(=O)(=O)NCCc2c(C)[nH]c3ccc(C)cc23)c1"
  class-assignment: "rule met"
- compound: "Clc1ccc2nc(-c3ccsc3)c(NC(c3ccccc3)c3ccccc3)n2c1"
  class-assignment: "rule not met"
- compound: "COc1ccc(OC)c(Cc2nc3cc(C)c(C)cc3[nH]c2=O)c1"
  class-assignment: "rule met"
- compound: "Fc1cnc(Nc2ccc(Cl)cc2)nc1Nc1ccc(Cl)cc1"
  class-assignment: "rule not met"
- compound: "Cc1cccc(C)c1NC(=O)C1(N(CCc2c[nH]c3ccccc23)C(=O)c2ccccc2F)CCCCC1"
  class-assignment: "rule met"
- compound: "Cc1[nH]c2ccc(OC(F)(F)F)cc2c1CCNS(=O)(=O)c1ccc(C(C)C)cc1"
  class-assignment: "rule met"
- compound: "O=C1c2ccccc2-c2onc3c(N4CCCC4)ccc1c23"
  class-assignment: "rule met"
- compound: "Cc1ccc(-c2nc3c(C)cccn3c2Nc2ccc3c(c2)OCCO3)cc1"
  class-assignment: "rule met"
- compound: "O=C(c1ccc(Cl)nc1)N1CCNc2ccccc2C1"
  class-assignment: "rule not met"
